B1: ZNF263 (parent)
chain: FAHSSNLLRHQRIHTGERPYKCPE

variants of: B1; assay: protein stability index of a GFP-peptide fusion (GPS, HEK-293T) (PSI 1-6); higher = more stable; conditions: c terminus: a fixed tail appended;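 also: lentivirally expressed fusions sorted by FACS into six bins by GFP to DsRed ratio, PSI derived from sequencing read proportions per bin multiplied by bin number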
measured quantity: protein stability index
Please respond with just the number, no unit label.

Consider the reported protein stability index for these variants:
>  <sequence text>
FAHSSNLLRQQRIHTGERPYKCPE

>  <measured quantity>
protein stability index

>  <result>
2.37

$$$$
>  <sequence text>
FAHSSNLLRHQRIHTGSRPYKCPE

>  <measured quantity>
protein stability index

>  <result>
2.29

$$$$
>  <sequence text>
FAHSSNLLRHQRIHQGERPYKCPE

>  <measured quantity>
protein stability index

>  <result>
2.19

$$$$
>  <sequence text>
FAHSYNLLRHQRIHTGERPYKCPE

>  <measured quantity>
protein stability index

>  <result>
2.13

$$$$
>  <sequence text>
FAASSNLLRHQRIHTGERPYKCPE

>  <measured quantity>
protein stability index

>  <result>
2.15

$$$$
>  <sequence text>
FVHSSNLLRHQRIHTGERPYKCPE

>  <measured quantity>
protein stability index

>  <result>
3.61

$$$$

**Q:** Identify protein stability index associated with the variant `FAHSSNLLRHQRIATGERPYKCPE`
**A:** 2.99

**Q:** Identify protein stability index associated with the variant `IAHSSNLLRHQRIHTGERPYKCPE`
**A:** 3.77

**Q:** Identify protein stability index associated with the variant `FAHSSNLLRHQRIHMGERPYKCPE`
**A:** 2.36

**Q:** Identify protein stability index associated with the variant `FAHSSNLLRHTRIHTGERPYKCPE`
**A:** 2.28

**Q:** Identify protein stability index associated with the variant `FAHSFNLLRHQRIHTGERPYKCPE`
**A:** 1.94

**Q:** Identify protein stability index associated with the variant `FAHSSNTLRHQRIHTGERPYKCPE`
**A:** 2.45

**Q:** Identify protein stability index associated with the variant `FAHSSNLLRHQRIHTGERPYGCPE`
**A:** 2.21

**Q:** Identify protein stability index associated with the variant `FAHSSNLLRHQRIHTGERPYECPE`
**A:** 2.79

**Q:** Identify protein stability index associated with the variant `FAHSSNLLRHQRIHTGERPYKCRE`
**A:** 1.95

Origin of measurements: the supplement of paper PMC10567573
